Listed next: entries and their corresponding inhibition at 1 µM.
tested on: HT-29 colon cancer; assay: MTT proliferation inhibition, HT-29; format: cell-based; conditions: Homo sapiens, HT-29, read-out: Proliferation inhibition rate, HT29 Colon cancer
value kind: inhibition at 1 µM (%)

[[record]]
molecule = "CCSC(=O)O[C@H]1C[C@H]2OC[C@@]2(OC(C)=O)[C@H]2[C@H](OC(=O)c3ccccc3)[C@]34OC(=O)O[C@H]3[C@H](OC(=O)[C@H](O)[C@@H](NC(=O)OC(C)(C)C)c3ccccc3)C(C)=C([C@@H](OC)C(=O)[C@]12C)C4(C)C [PCMI-21]"
system_under_test = "HT-29 colon cancer"
observed = 87.7

[[record]]
molecule = "CO[C@H]1C(=O)[C@]2(C)[C@@H](OC(=O)N(C)C)C[C@H]3OC[C@@]3(OC(C)=O)[C@H]2[C@H](OC(=O)c2ccccc2)[C@]23OC(=O)O[C@H]2[C@H](OC(=O)[C@H](O)[C@@H](NC(=O)OC(C)(C)C)c2ccccc2)C(C)=C1C3(C)C [PCMI-14]"
system_under_test = "HT-29 colon cancer"
observed = 87.3

[[record]]
molecule = "CO[C@H]1C(=O)[C@]2(C)[C@@H](OC)C[C@H]3OC[C@@]3(OC(C)=O)[C@H]2[C@H](OC(=O)c2ccccc2)[C@]23OC(=O)O[C@H]2[C@H](OC(=O)[C@H](O)[C@@H](NC(=O)OC(C)(C)C)c2ccccn2)C(C)=C1C3(C)C [PCMI-04]"
system_under_test = "HT-29 colon cancer"
observed = 88.3

[[record]]
molecule = "CO[C@H]1C(=O)[C@]2(C)[C@@H](OC)C[C@H]3OC[C@@]3(OC(C)=O)[C@H]2[C@H](OC(=O)c2ccccc2)[C@]23OC(=O)O[C@H]2[C@H](OC(=O)[C@H](O)[C@H](CC(C)C)NC(=O)OC(C)(C)C)C(C)=C1C3(C)C [PCMI-05]"
system_under_test = "HT-29 colon cancer"
observed = 87.9

[[record]]
molecule = "COC(=O)O[C@H]1C[C@H]2OC[C@@]2(OC(C)=O)[C@H]2[C@H](OC(=O)c3ccccc3)[C@]34OC(=O)O[C@H]3[C@H](OC(=O)[C@H](O)[C@@H](NC(=O)OC(C)(C)C)c3ccccc3)C(C)=C([C@@H](OC)C(=O)[C@]12C)C4(C)C [PCMI-17]"
system_under_test = "HT-29 colon cancer"
observed = 88.5

